For each record, write down the corresponding pIC50.
- tested_system: MMP-9 enzyme (Homo sapiens, UniProt P14780)
- Sequence (P14780 94-707): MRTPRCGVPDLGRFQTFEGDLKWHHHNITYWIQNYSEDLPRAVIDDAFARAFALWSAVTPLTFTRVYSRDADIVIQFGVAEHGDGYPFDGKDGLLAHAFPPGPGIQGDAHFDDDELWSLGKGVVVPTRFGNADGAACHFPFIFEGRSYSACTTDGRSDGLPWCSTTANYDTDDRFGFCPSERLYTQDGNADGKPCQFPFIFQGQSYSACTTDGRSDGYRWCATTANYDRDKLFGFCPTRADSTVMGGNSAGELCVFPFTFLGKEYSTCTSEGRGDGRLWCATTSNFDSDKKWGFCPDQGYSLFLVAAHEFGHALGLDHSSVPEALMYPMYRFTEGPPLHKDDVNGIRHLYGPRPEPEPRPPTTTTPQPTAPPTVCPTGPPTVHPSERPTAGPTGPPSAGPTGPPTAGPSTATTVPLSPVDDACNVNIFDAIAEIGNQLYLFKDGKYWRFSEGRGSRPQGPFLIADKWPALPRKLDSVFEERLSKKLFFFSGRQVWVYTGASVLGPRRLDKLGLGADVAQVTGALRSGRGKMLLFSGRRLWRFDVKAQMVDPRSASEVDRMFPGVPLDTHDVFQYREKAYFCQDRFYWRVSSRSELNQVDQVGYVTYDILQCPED
- procedure_text: off-chip experiment, IC50 of MMP-9 inhibitors
- Format: biochemical
- condition_label: read-out: IC50 from the off-chip experiment
Give bare numbers, as −log10 of the molar value.

For each of the molecules below, state pIC50.
1. CNC(=O)[C@H](Cc1ccccc1)NC(=O)[C@H](CC(C)C)[C@H](CSc1cccs1)C(=O)NO [batimastat]
2. CC(C)(NS(=O)(=O)c1ccc(Oc2ccc(F)cc2)cc1)C(=O)NO [CP417474]

Result ::
1: 8.46; 2: 7.83

====

Quick record of IC50 values for matrix metalloproteases-9 (MMP-9) (Homo sapiens, UniProt P14780).
One number for each entry, in nM.

List the reported IC50 of each compound below.
1. CC(C)(NS(=O)(=O)c1ccc(Oc2ccc(F)cc2)cc1)C(=O)NO [CP417474]
2. CNC(=O)[C@H](Cc1ccccc1)NC(=O)[C@H](CC(C)C)[C@H](CSc1cccs1)C(=O)NO [batimastat]

Result ::
11.9
4.1
